The measurements presented in this section are drawn from patent US7858621B2.

Procedure text: PK study in rats, single oral administration
Type: in vivo
Condition details: rat, plasma
For each record, write down the corresponding Tmax.
Lab book: enter the figure in h, no units written.

Inquiry: Fill in: Tmax of C#Cc1cc(CNC(=O)/C=C/c2ccc(C(F)(F)F)nc2NC(C)C)cc(F)c1NS(C)(=O)=O is ___
Reply text: 3

Inquiry: And C#Cc1cc(CNC(=O)/C=C/c2ccc(C(F)(F)F)nc2)cc(F)c1NS(C)(=O)=O ?
Reply text: 0.833

Inquiry: And C=Cc1cc(CNC(=O)/C=C/c2ccc(C(F)(F)F)nc2N2CCOCC2)cc(F)c1NS(C)(=O)=O ?
Reply text: 2

Inquiry: And C#Cc1cc(CNC(=O)/C=C/c2ccc(C(F)(F)F)nc2N2CCOCC2)cc(F)c1NS(C)(=O)=O ?
Reply text: 2.38

Inquiry: And C#Cc1cc(CNC(=O)/C=C/c2ccc(C(C)(C)C)cc2N2CCOCC2)cc(F)c1NS(C)(=O)=O [drawing 350, reference compound] ?
Reply text: 2

Inquiry: And C#Cc1cc(CNC(=O)/C=C/c2ccc(C(F)(F)F)nc2CCC)cc(F)c1NS(C)(=O)=O ?
Reply text: 3.5

====

Procedure text: Metabolic stability test in human intestinal microsomes
Assay type: in vitro ADME
Condition details: 5 μg/mL, 1 mg/mL protein, 2 hr reaction time
Param label: returns met when Stability HIM (% metabolized in human intestinal microsomes) < 2%, returns not met otherwise, including exact equality.

Inquiry: Please determine if C#Cc1cc(CNC(=O)/C=C/c2ccc(C(F)(F)F)nc2N2CCOCC2)cc(F)c1NS(C)(=O)=O [Example 12] is below 2% in terms of Stability HIM (% metabolized in human intestinal microsomes).
Reply text: not met

Inquiry: And C#Cc1cc(CNC(=O)/C=C/c2ccc(C(F)(F)F)nc2OCCOC)cc(F)c1NS(C)(=O)=O [Example 75] ?
Reply text: not met

Inquiry: And C#Cc1cc(CNC(=O)/C=C/c2ccc(C(F)(F)F)nc2OC)cc(F)c1NS(C)(=O)=O [Example 42] ?
Reply text: not met

Inquiry: And C=Cc1cc(CNC(=O)/C=C/c2ccc(C(F)(F)F)nc2N2CCOCC2)cc(F)c1NS(C)(=O)=O [Example 281] ?
Reply text: met

Inquiry: And CCCCNc1nc(C(F)(F)F)ccc1/C=C/C(=O)NCc1cc(C)c(NS(C)(=O)=O)c(F)c1 [Example 188] ?
Reply text: met

Inquiry: And CCCc1nc(C(F)(F)F)ccc1/C=C/C(=O)NCc1ccc(NS(C)(=O)=O)c(Cl)c1 [Example 253] ?
Reply text: not met

Inquiry: And CCCNc1nc(C(F)(F)F)ccc1/C=C/C(=O)NCc1cc(F)c(NS(C)(=O)=O)c(F)c1 [Example 222] ?
Reply text: met

Inquiry: And C#Cc1cc(CNC(=O)/C=C/c2ccc(C(C)(C)C)cc2N2CCOCC2)cc(F)c1NS(C)(=O)=O [drawing 334, reference compound] ?
Reply text: not met

Inquiry: And C#Cc1cc(CNC(=O)/C=C/c2ccc(C(F)(F)F)nc2NC(C)C)cc(F)c1NS(C)(=O)=O [Example 100] ?
Reply text: met

Inquiry: And COCCNc1nc(C(F)(F)F)ccc1/C=C/C(=O)NCc1ccc(NS(C)(=O)=O)c(F)c1 [Example 45] ?
Reply text: not met

Inquiry: And C#Cc1cc(CNC(=O)/C=C/c2ccc(C(F)(F)F)nc2NCCOC)cc(F)c1NS(C)(=O)=O [Example 65] ?
Reply text: not met
